# test_description: amyloid nucleation score (Sup35N fusion, yeast selection) (log enrichment); library NNK2; higher = more nucleation; inactive = no reads after selection;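 further: zero at mode of non-aggregating sequences after 7 days selection at 30°C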
Returns the class for an entry based on its amyloid nucleation score. Class ranges: bottom (below 0.5), middle (0.5 to below 4), top (4 or more)

Input line: Category lookup for the substance MPWFIQMVHLCWFPEGRTRF
Output line: top

Input line: Which class is correct for the following substance? DSNDRWVW
Output line: bottom

Input line: Where would CAPVCFFRGSLRCRSRLTWR land among the classes by reported amyloid nucleation score?
Output line: bottom

Input line: Quick check: band for IDPADVGILSCCFLNDSKHE
Output line: bottom

Input line: Would you mind sorting VVLSCFLQRAPQVYSLF into the appropriate category?
Output line: bottom

Input line: Band assignment needed for SQGCVICGFYLLWHPNRHCQ please.
Output line: top

Input line: Which class does FSQNIVSSRVVTYKMNCNGM fall in?
Output line: middle

Input line: Class (by measured amyloid nucleation score) for LDTCVFHHLVGIEKATIYR
Output line: bottom

Input line: # bin lookup: classify KFILCCLFPTYGREFCTSGL by its amyloid nucleation score
Output line: top

Input line: The entry to classify is MHRLPNNIPTGNQLPLQPSE ; which class holds it?
Output line: bottom

Input line: Please report the category associated with IFRTFFIYKEFCGFLWCVGG , nothing else.
Output line: middle

Input line: Sort LINFSFSDTAVFYVREGWEH into one of the categories.
Output line: top

Input line: Place this substance in its band: DMLEKKE
Output line: top

Input line: Quick check: band for EVRRCGEEFGNGARMRWMGV
Output line: middle

Input line: Which bin should I file ICQCGYFWF under?
Output line: middle

Input line: Exercise: read the entry MFVGGGSSSTWLGNVWYVGS and state which class it falls under.
Output line: bottom
